Values were extracted from ChEMBL document CHEMBL5291721.

assay_system: 5-hydroxytryptamine receptor 2A (Homo sapiens, UniProt P28223); further: assay procedure not described here
Sequence (P28223 whole entry): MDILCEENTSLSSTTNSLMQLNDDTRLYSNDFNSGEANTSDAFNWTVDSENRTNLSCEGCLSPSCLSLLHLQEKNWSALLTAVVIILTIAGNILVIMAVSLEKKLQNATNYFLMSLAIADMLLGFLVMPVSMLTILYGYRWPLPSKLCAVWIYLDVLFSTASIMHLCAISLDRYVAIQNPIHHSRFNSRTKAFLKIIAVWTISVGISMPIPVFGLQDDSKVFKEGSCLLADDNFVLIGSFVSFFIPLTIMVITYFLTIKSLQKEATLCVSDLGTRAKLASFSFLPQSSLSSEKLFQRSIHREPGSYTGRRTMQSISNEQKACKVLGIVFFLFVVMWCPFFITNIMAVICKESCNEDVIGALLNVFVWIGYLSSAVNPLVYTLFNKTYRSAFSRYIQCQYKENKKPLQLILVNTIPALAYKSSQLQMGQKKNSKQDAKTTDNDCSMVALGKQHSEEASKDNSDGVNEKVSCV
Type: functional, cell-based
Where a SMILES comes first, the peptide text is derived from it.
AC50 by entry:

{"columns": ["compound", "AC50"],
 "data": [
  ["Cn1cnc2c(F)c(Nc3ccc(Br)cc3F)c(C(=O)NOCCO)cc21", "> 30 µM"],
  ["CC(C)(C)NCC(O)COc1ccccc1C#N (stereo not drawn)", "> 30 µM"],
  ["CCN(CC)CCCN(c1ccccc1)C1Cc2ccccc2C1", "2.89 µM"],
  ["COc1cc2c(cc1OC)C1CC(=O)C(CC(C)C)CN1CC2 (stereo not drawn)", "> 30 µM"],
  ["C[C@@H](O)[C@H]1C(=O)N2C(C(=O)O)=C(SCCN=CN)C[C@H]12 [IMIPENEM ANHYDROUS]", "> 300 µM"],
  ["O=C(O)c1ccc2nc(-c3cc(Cl)cc(Cl)c3)oc2c1", "> 30 µM"],
  ["CS(=O)(=O)NC(=O)CCC/C=C\\C[C@H]1C(=O)C[C@@H](O)[C@@H]1/C=C/[C@@H](O)COc1ccccc1", "> 30 µM"],
  ["COC(=O)c1ccc2c(c1)NC(=O)/C2=C(\\Nc1ccc(N(C)C(=O)CN2CCN(C)CC2)cc1)c1ccccc1", "> 30 µM"],
  ["CC(C)C[C@H](NC(=O)[C@H](Cc1ccccc1)NC(=O)c1cnccn1)B(O)O", "> 30 µM"],
  ["NS(=O)(=O)c1ccc(N2CCCCS2(=O)=O)cc1", "> 30 µM"],
  ["CN(C)CCN(Cc1ccccc1)c1ccccn1", "7.3 µM"],
  ["CC(C)(Oc1ccc(Cl)cc1)C(=O)OCCOC(=O)c1cccnc1 [ETOFIBRATE]", "> 30 µM"],
  ["CC1=C(/C=C/C(C)=C/C=C/C(C)=C/C(=O)Oc2c(C)c(C)c3c(c2C)CCC(C)(CCCC(C)CCCC(C)CCCC(C)C)O3)C(C)(C)CCC1 (stereo not drawn)", "> 30 µM"],
  ["CCC(NC(C)C)C(O)c1ccc(O)c(O)c1 (stereo not drawn)", "> 30 µM"],
  ["CCC(=O)[C@@]1(C)[C@H](C)C[C@H]2[C@@H]3CCC4=CC(=O)C=C[C@]4(C)[C@H]3[C@@H](O)C[C@@]21C [RIMEXOLONE]", "> 10 µM"],
  ["CC(=O)SCC(Cc1ccccc1)C(=O)NCC(=O)OCc1ccccc1 (stereo not drawn)", "> 30 µM"],
  ["C[C@H](N)C(=O)N[C@@H](CCC(N)=O)C(=O)O [ALANYL GLUTAMINE] (H-Ala-Gln-OH)", "> 30 µM"],
  ["CC[N+](CC)(CCNC(=O)C(=O)NCC[N+](CC)(CC)Cc1ccccc1Cl)Cc1ccccc1Cl", "> 30 µM"]
]}

----------
Endpoint: AC50. System: UniProtKB P21728. Items follow.
Sequence (P21728 whole entry): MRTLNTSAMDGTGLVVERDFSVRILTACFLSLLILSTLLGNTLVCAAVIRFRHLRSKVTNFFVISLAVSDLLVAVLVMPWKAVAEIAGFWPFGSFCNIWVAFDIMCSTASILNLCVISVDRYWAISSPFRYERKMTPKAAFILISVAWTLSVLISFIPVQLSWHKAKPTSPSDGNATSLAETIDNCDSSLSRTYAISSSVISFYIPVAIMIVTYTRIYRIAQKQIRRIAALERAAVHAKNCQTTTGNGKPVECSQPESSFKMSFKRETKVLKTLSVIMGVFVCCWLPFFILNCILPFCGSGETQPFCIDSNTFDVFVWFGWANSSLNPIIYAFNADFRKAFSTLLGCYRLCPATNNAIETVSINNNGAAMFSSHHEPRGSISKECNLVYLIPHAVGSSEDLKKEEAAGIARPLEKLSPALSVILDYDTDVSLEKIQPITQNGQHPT

{"columns": ["molecule", "AC50"],
 "data": [
  ["Cc1cccc(C)c1NC(=O)CN(CC(=O)O)CC(=O)O [LIDOFENIN]", "> 30 µM"],
  ["NS(=O)(=O)c1cc2c(cc1Cl)NC(C(Cl)Cl)NS2(=O)=O (centres undefined) [TRICHLORMETHIAZIDE]", "> 30 µM"],
  ["CS(=O)(=O)Nc1ccc([N+](=O)[O-])cc1Oc1ccccc1 [NIMESULIDE]", "> 30 µM"],
  ["CCCCCCO[C@@H](C)c1cccc(-c2csc(NC(=O)c3cc(Cl)c(/C=C(\\C)C(=O)O)c(Cl)c3)n2)c1OC [LUSUTROMBOPAG]", "1.54 µM"],
  ["CC(NCCC(c1ccccc1)c1ccccc1)c1ccccc1 (centres undefined) [FENDILINE]", "21.7 µM"],
  ["CNC1(c2ccccc2Cl)CCCCC1=O (centres undefined) [KETAMINE]", "> 30 µM"],
  ["N#Cc1ccnc(N2C(=O)CC[C@H]2C(=O)N(c2cncc(F)c2)[C@H](C(=O)NC2CC(F)(F)C2)c2ccccc2Cl)c1 [IVOSIDENIB]", "> 30 µM"],
  ["O=C(O)[C@H](O)[C@@H](O)[C@H](O)[C@H](O)CO [GLUCONIC ACID]", "> 30 µM"],
  ["CC(C)NC[C@H](O)COc1ccc(CCOCC2CC2)cc1 [LEVOBETAXOLOL]", "> 30 µM"]
]}

----------
assay_system: Voltage-gated inwardly rectifying potassium channel KCNH2 (Homo sapiens); further: assay procedure not described here
Sequence (Q12809 whole entry): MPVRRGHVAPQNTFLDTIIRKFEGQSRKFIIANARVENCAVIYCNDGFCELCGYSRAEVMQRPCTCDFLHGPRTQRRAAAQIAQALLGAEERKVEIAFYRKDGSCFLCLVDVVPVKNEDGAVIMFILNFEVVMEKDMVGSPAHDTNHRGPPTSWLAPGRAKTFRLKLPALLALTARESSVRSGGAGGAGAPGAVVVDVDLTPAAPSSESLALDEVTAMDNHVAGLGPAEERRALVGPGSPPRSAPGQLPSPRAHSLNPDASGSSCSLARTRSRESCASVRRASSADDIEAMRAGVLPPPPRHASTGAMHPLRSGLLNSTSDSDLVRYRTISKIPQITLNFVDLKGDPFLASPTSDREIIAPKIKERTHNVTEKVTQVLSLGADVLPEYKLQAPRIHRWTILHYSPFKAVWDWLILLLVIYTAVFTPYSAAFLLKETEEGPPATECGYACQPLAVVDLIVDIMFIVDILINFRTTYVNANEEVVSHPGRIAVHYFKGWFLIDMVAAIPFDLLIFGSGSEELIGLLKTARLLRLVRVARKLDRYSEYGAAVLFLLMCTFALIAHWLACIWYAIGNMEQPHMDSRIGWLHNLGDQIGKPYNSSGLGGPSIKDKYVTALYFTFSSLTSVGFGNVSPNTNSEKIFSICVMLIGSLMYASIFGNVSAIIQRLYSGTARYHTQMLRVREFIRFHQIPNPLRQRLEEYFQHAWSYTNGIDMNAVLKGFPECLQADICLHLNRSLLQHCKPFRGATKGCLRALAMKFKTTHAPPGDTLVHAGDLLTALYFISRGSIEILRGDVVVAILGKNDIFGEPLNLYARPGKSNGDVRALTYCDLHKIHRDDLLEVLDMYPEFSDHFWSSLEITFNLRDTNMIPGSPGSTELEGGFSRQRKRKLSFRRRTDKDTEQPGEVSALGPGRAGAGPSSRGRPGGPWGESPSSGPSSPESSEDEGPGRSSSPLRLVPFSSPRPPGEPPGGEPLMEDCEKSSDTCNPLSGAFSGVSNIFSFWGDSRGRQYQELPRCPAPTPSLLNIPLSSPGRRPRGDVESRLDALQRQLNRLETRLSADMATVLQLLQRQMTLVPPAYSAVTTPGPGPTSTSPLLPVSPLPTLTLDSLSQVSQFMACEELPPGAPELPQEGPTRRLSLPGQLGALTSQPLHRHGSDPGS
Format: functional
details: read-out: AC50; further: assay procedure not described here
Measured AC50 of individual entries

{"columns": ["molecule", "assay_system", "sign", "AC50 / µM"],
 "data": [
  ["N=C(N)NCC1COc2ccccc2O1 (centres undefined)", "Voltage-gated inwardly rectifying potassium channel KCNH2 (Homo sapiens)", ">", 30],
  ["O=C1Nc2ccccc2C1(c1ccc(O)cc1)c1ccc(O)cc1", "Voltage-gated inwardly rectifying potassium channel KCNH2 (Homo sapiens)", "=", 10.1],
  ["NC(=O)C1(N2CCCCC2)CCN(CCCN2c3ccccc3CCc3ccccc32)CC1", "Voltage-gated inwardly rectifying potassium channel KCNH2 (Homo sapiens)", "=", 2.2],
  ["Cc1cnc(C(=O)O)c[n+]1[O-]", "Voltage-gated inwardly rectifying potassium channel KCNH2 (Homo sapiens)", ">", 30]
]}

----------
Reported AC50 values are given for each entry in this list.
assay_system: Vascular endothelial growth factor receptor 2 (Homo sapiens, UniProt P35968); further: assay procedure not described here
Sequence (P35968 whole entry): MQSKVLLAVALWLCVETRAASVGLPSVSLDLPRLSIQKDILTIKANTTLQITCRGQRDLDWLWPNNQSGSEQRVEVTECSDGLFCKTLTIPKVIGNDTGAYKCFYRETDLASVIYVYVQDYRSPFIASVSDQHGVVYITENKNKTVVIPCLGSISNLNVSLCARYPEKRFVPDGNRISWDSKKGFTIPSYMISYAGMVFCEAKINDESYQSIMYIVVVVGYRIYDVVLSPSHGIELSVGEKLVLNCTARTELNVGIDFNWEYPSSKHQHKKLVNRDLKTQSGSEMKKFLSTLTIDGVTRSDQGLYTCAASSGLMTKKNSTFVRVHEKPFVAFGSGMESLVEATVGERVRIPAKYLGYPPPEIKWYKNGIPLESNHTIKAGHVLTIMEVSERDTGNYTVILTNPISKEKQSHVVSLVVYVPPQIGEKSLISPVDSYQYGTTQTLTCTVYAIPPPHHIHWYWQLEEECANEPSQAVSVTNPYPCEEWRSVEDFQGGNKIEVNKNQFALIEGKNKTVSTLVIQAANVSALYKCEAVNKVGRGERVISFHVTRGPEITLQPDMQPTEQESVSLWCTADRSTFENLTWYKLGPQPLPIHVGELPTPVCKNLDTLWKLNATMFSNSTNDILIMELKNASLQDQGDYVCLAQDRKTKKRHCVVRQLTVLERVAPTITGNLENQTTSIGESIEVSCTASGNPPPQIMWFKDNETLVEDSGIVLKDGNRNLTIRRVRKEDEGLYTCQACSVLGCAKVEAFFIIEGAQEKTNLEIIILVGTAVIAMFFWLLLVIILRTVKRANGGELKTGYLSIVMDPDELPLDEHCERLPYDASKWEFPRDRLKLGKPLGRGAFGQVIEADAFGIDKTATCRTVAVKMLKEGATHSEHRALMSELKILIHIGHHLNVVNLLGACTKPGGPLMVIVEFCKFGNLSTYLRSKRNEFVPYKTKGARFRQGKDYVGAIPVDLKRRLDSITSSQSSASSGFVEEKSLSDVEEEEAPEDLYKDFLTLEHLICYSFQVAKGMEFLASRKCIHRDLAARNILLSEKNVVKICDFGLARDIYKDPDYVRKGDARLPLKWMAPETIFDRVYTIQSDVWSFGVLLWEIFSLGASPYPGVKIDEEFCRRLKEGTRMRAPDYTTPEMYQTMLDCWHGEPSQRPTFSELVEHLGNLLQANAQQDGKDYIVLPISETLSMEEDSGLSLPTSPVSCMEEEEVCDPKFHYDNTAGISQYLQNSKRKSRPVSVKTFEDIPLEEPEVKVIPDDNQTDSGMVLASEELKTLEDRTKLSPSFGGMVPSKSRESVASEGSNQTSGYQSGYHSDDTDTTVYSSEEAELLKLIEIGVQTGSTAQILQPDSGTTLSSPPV
Assay type: functional

{"columns": ["compound", "AC50"],
 "data": [
  ["Nc1c2c(nc3ccccc13)CCCC2O (centres undefined)", "> 30 µM"],
  ["O=C1[C@@H]2[C@H]3CC[C@H](C3)[C@@H]2C(=O)N1C[C@@H]1CCCC[C@H]1CN1CCN(c2nsc3ccccc23)CC1", "> 30 µM"],
  ["C[C@H](CCC(=O)O)[C@H]1CC[C@H]2[C@@H]3[C@H](O)C[C@@H]4C[C@H](O)CC[C@]4(C)[C@H]3CC[C@]12C", "> 3 µM"],
  ["CCC[C@@]1(CCc2ccccc2)CC(O)=C([C@H](CC)c2cccc(NS(=O)(=O)c3ccc(C(F)(F)F)cn3)c2)C(=O)O1", "> 30 µM"],
  ["C[C@@H](O)[C@H]1C(=O)N2C(C(=O)O)=C(SCCN=CN)C[C@H]12 [IMIPENEM ANHYDROUS]", "> 300 µM"],
  ["NCC1(CC(=O)O)CCCCC1", "> 30 µM"],
  ["C[C@H](Nc1ncnc2[nH]cnc12)c1cc2cccc(Cl)c2c(=O)n1-c1ccccc1", "> 30 µM"],
  ["CN(C)CCC=C1c2ccccc2CCc2ccccc21", "> 30 µM"],
  ["c1cnc2cc3c(cc2n1)[C@@H]1CNC[C@H]3C1", "> 30 µM"],
  ["COc1cc2c(cc1OC)C1CC(=O)C(CC(C)C)CN1CC2 (centres undefined)", "> 30 µM"],
  ["CO[C@@H]1[C@@H](OC(N)=O)[C@@H](O)[C@H](Oc2ccc3c(O)c(NC(=O)c4ccc(O)c(CC=C(C)C)c4)c(=O)oc3c2C)OC1(C)C", "25 µM"],
  ["CN1CC2c3ccccc3Oc3ccc(Cl)cc3C2C1 (centres undefined)", "> 30 µM"],
  ["Cn1cnc2c(F)c(Nc3ccc(Br)cc3F)c(C(=O)NOCCO)cc21", "> 30 µM"],
  ["CC(=O)Oc1ccccc1C(=O)O", "> 30 µM"]
]}

----------
A collection of molecules and their measured AC50
assay_system: Progesterone receptor (Homo sapiens, UniProt P06401); further: assay procedure not described here
Sequence (P06401 whole entry): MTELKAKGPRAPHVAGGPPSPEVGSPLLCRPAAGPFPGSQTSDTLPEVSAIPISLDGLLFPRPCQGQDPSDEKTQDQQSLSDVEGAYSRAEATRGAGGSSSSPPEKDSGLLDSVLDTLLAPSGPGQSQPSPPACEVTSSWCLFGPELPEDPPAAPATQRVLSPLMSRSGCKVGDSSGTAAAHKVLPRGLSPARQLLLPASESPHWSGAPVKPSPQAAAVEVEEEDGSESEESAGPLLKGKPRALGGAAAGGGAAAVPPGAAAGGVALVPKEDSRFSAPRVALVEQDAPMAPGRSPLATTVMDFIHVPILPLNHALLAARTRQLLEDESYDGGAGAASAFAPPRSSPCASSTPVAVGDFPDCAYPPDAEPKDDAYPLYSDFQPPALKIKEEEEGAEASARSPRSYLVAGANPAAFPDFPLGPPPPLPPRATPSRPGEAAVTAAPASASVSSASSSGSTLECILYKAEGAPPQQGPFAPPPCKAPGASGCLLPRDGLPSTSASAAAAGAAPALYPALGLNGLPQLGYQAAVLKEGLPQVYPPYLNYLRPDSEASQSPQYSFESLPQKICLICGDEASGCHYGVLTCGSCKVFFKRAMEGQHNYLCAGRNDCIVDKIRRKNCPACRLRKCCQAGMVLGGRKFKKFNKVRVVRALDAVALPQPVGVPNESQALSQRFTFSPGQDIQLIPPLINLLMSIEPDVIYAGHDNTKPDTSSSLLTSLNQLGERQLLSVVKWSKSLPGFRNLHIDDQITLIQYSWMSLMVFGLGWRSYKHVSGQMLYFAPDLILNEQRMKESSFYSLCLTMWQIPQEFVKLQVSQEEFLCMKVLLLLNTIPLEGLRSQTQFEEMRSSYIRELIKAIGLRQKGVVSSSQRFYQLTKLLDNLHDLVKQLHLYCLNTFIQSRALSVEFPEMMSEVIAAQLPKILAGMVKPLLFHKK
Assay type: functional
measure_name: AC50

{"columns": ["molecule", "measured"],
 "data": [
  ["CN1CCCN=C1/C=C/c1cccc(O)c1 [OXANTEL]", "10 µM"],
  ["CN(C)CCOC(=O)C(c1ccccc1)C1(O)CCCC1 (stereo not drawn) [CYCLOPENTOLATE]", "> 10 µM"],
  ["CC(=O)SCC(Cc1ccccc1)C(=O)NCC(=O)OCc1ccccc1 (stereo not drawn) [RACECADOTRIL]", "> 30 µM"],
  ["O=C(O)[C@H]1/C(=C/CO)O[C@@H]2CC(=O)N21 [CLAVULANIC ACID]", "> 30 µM"],
  ["CCC(=O)c1ccc2c(c1)N(CC(C)N(C)C)c1ccccc1S2 (stereo not drawn) [PROPIOMAZINE]", "> 30 µM"],
  ["CN1CCC(=C2c3ccccc3CC(=O)c3sccc32)CC1 [KETOTIFEN]", "> 10 µM"],
  ["Cc1cccc(Nc2ccncc2S(=O)(=O)NC(=O)NC(C)C)c1 [TORSEMIDE]", "> 10 µM"],
  ["CN1CC2c3ccccc3Oc3ccc(Cl)cc3C2C1 (stereo not drawn) [ASENAPINE]", "> 30 µM"],
  ["CN(C)CCOC(c1ccc(Cl)cc1)c1ccccn1 (stereo not drawn) [CARBINOXAMINE]", "> 30 µM"],
  ["CC1=C(/C=C/C(C)=C/C=C/C(C)=C/C(=O)Oc2c(C)c(C)c3c(c2C)CCC(C)(CCCC(C)CCCC(C)CCCC(C)C)O3)C(C)(C)CCC1 (stereo not drawn) [TRETINOIN TOCOFERIL]", "19 µM"],
  ["CCc1ccc(C(=O)C(C)CN2CCCCC2)cc1 (stereo not drawn) [EPERISONE]", "> 30 µM"],
  ["CCC(NC(C)C)C(O)c1ccc(O)c(O)c1 (stereo not drawn) [ISOETHARINE]", "> 30 µM"],
  ["CC(C(=O)O)c1ccc(C(=O)c2ccccc2)s1 (stereo not drawn) [TIAPROFENIC ACID]", "> 10 µM"],
  ["COC(=O)c1ccc2c(c1)NC(=O)/C2=C(\\Nc1ccc(N(C)C(=O)CN2CCN(C)CC2)cc1)c1ccccc1 [NINTEDANIB]", "> 30 µM"],
  ["COc1cccc2c1C(=O)c1c(O)c3c(c(O)c1C2=O)C[C@@](O)(C(=O)CO)C[C@@H]3O[C@H]1C[C@H](N)[C@H](O)[C@H](C)O1 [DOXORUBICIN]", "> 30 µM"],
  ["COc1cc(N)cn[n+]1-c1ccccc1 [AMEZINIUM METILSULFATE]", "> 30 µM"],
  ["Nc1nc(Cl)nc2c1ncn2[C@@H]1O[C@H](CO)[C@@H](O)[C@@H]1F [CLOFARABINE]", "> 30 µM"],
  ["CCC1(CC)C(=O)NC(=O)N(C)C1=O [METHARBITAL]", "> 10 µM"]
]}
